Molecular target: T1, human TPBG antigen immobilized on a CM5 chip (human, UniProt Q13641 32-355, limits assumed)
T1 sequence (looked up): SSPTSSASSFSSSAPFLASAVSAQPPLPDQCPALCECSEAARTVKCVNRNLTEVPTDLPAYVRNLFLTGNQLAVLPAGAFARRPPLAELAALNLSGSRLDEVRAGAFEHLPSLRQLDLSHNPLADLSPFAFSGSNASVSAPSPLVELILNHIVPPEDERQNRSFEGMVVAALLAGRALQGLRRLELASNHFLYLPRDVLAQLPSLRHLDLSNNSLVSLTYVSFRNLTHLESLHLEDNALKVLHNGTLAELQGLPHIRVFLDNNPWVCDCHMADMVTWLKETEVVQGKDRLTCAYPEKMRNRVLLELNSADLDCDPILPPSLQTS
Experiment: SPR (Biacore), human TPBG antigen immobilized on CM5 chip
Protocol: To assess the binding specificity and affinity of the humanized anti-TPBG antibody, Biacore analysis was performed using human TPBG antigen immobilized on a CM5 chip. Biacore technique utilizes the change in the refractive index of surface layer after antibody binding to the TPBG antigen immobilized on the surface layer. The binding was determined by surface plasmon resonance (SPR) through detecting the laser refracted from the surface. […]
kon reference
value_type: kon (M⁻¹ s⁻¹)

* Humanized antibody 28D4-7 (antibody, V domains shown, also called h28D4-7) VH: EVQLVESGGGLVKPGGSLRLSCAASGFTFSNYVMSWIRQAPGKGLEWVAEISTGGSHTYYSDTVTGRFTISRDNAKKSLYLQMNSLRAEDTAVYYCIMFYYGSSYSMDYWGQGTTVTVSS VL: DIQMTQSPSSLSASVGDRVTITCRASQDIRNYLNWYQQKPGKAPKLLIYHTSRLHSGVPSRFSGSGSGTDYTFTISSLQPEDIATYYCQQGDTLPLTFGQGTRLEIK | 3.68e+06
* Humanized antibody 28D4-3 (antibody, V domains shown, also called h28D4-3) VH: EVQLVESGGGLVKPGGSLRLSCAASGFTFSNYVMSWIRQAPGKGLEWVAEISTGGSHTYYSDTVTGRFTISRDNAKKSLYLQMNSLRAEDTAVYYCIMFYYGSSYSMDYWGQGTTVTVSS VL: DIQMTQSPSSLSASVGDRVTITCRASQDIRNYLNWYQQKPGKAPKLLIYHTSRLHSGVPSRFSGSGSGTDFTFTISSLQPEDIATYYCQQGDTLPLTFGQGTRLEIK | 1.12e+06
* Humanized antibody 12B12-12 (antibody, V domains shown, also called h12B12-12) VH: EVQLVESGGGLVQPGGSLRLSCAASGFTFSNFGMHWVRQAPGKGLEWVSYISSGSTSFYYADTVKGRFTISRDNAKNSLYLQMNSLRDEDTAVYYCARTNSLLRGFFDAWGQGTTVTVSS VL: DIVLTQTPLSLSVTPGQPASISCRASQSVSSSSYTYLHWYLQKPGQPPQLLIKSASNLESGVPDRFSGSGSGTDFTLKISRVEAEDVGVYYCQHSWEIPLTFGQGTKLEIK | 1.23e+06

Attribution: patent US20200062856A1
